The values you see were collected from patent US9662327B2.

target.system: IDH1 R132H (Homo sapiens (Human), UniProt O75874, R132H)
Sequence (O75874 whole entry R132H): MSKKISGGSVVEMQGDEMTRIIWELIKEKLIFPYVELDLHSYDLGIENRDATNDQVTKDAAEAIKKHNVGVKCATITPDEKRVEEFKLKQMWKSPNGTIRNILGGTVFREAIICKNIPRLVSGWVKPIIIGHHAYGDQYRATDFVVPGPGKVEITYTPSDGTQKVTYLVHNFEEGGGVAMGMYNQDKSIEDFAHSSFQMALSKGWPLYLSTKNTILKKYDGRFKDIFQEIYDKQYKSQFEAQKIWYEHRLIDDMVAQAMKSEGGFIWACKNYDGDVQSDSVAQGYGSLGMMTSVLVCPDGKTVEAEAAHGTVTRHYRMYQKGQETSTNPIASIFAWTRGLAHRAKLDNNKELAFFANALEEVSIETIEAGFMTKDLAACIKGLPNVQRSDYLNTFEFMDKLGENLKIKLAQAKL
test.name: Assays for IDH1 R132H Inhibitors (NADPH/aKG, resazurin detection)
Assay type: biochemical
study.conditions: IDH1 R132H enzyme, Table 3; read-out: R132H IC50
pIC50: −log10 of the molar value.
property.name: pIC50

* C=C(F)C(=O)N1CCc2c(C3CC3)nc(N3CCN(C(=O)CCOC)[C@H](C4CC4)C3)c(C#N)c2C1 | 6.00 to 6.30
* C#CC(=O)N1CCc2c(C#N)c(-c3ccc(C(=O)OC)cc3F)nc(C3CC3)c2C1 | 6.00 to 6.30
* CC(C)[C@@H]1CN(c2nc(C3CC3)c3c(c2C#N)CC(C)(C)OC3)CCN1C(=O)CCc1nnco1 | 6.00 to 6.30
* C#CC(=O)N1CCc2c(C#N)c(N3CCN(C(=O)CCO)[C@H](C4CC4)C3)nc(C3CC3)c2C1 | 6.00 to 6.30
* CC1(C)Cc2c(C#N)c(N3CCN(C(=O)C4CC4)C(CC(F)(F)F)C3)nc(C3CC3)c2CO1 (stereo not drawn) | 6.00 to 6.30
* N#CCC(=O)N1CCc2c(C#N)c(N3CCN(C(=O)C4CC4)[C@H](C4CC4)C3)nc(C3CC3)c2C1 | 6.00 to 6.30

Return the recorded pIC50 value; entry: `CC(C)[C@@H]1CN(c2nc(C3CC3)c3c(c2C#N)CC(C)(C)OC3)CCN1C(=O)CCCO`
> 6.30

Return the recorded pIC50 value; entry: `COCCC(=O)N1CCN(c2nc(C3CC3)c3c(c2C#N)CC(C)(C)OC3)C[C@H]1C1CC1`
> 6.30

Return the recorded pIC50 value; entry: `CC(=O)N1CCc2c(C#N)c(N3CCN(C(=O)C4CC4)[C@H](C4CC4)C3)nc(C3CC3)c2C1`
6.00 to 6.30

Return the recorded pIC50 value; entry: `C=CC(=O)N1CCc2c(C#N)c(N3CCN(C(=O)CCOC)[C@H](C4CC4)C3)nc(C3CC3)c2C1`
> 6.30

Return the recorded pIC50 value; entry: `CC(C)[C@@H]1CN(c2nc(C3CC3)c3c(c2C#N)CC(C)(C)OC3)CCN1C(=O)[C@@H]1C[C@H]1CO`
> 6.30

Return the recorded pIC50 value; entry: [2H]C1([2H])CN(c2nc(C3CC3)c3c(c2C#N)CC(C)(C)OC3)C([2H])([2H])C([2H])(C([2H])(C([2H])([2H])[2H])C([2H])([2H])[2H])N1C(=O)CC(F)(F)F (stereo not drawn)
> 6.30

###

target.system: IDH1 R132H (Homo sapiens (Human), UniProt O75874, R132H)
test.name: Assays for IDH1 R132H Inhibitors (NADPH/aKG, resazurin detection)
Format: biochemical
study.conditions: IDH1 R132H enzyme, Table 2; read-out: IDHR132H Activity
pIC50: −log10 of the molar value.
Parameter: pIC50. Scope: all listed entries.

Before answering, review these 6 worked examples.
* CCC1CN(c2nc(C3CCCCC3)c3c(c2C#N)CCOC3)CCN1C(=O)c1ccco1 (stereo not shown) | 5.00 to 6.00
* CC(C)[C@@H]1CN(c2nc(C3CC3)c3c(c2C#N)CC(C)(C)OC3)CCN1C(=O)Cn1cc(Br)cn1 | 6.00 to 6.30
* N#Cc1c(N2CCN(C(=O)Cc3ccccc3)CC2)nc(C2CCCCC2)c2c1CCOC2 | 5.00 to 6.00
* CCOC(=O)C1CN(c2nc(C3CC3)c3c(c2C#N)CC(C)(C)OC3)CCN1C(=O)c1ccoc1 (stereo not shown) | 5.00 to 6.00
* CSCCC(=O)N1CCN(c2nc(C3CC3)c3c(c2C#N)CC(C)(C)OC3)C[C@H]1C(C)C | > 6.30
* COC(=O)CCC(=O)N1CCN(c2nc(C3CC3)c3c(c2C#N)CC(C)(C)OC3)C[C@H]1C(C)C | > 6.30

Now let's try a different one.
State pIC50 on IDH1 R132H (Homo sapiens (Human), UniProt O75874, R132H). Entry: `C#CCNCC(=O)N1CCN(c2nc(C3CC3)c3c(c2C#N)CC(C)(C)OC3)C[C@H]1C(C)C`
5.00 to 6.00
